For each record, write down the corresponding GI50.
System: MOLT-4
Measurement Description: NCI tumour cell line growth inhibition, 48 h
Active and inactive are the calls of the source. No stated cut-off is given here; in the data, active = GI50 up to about 1.1 µM and inactive = higher.

Solved cases below.
Compound	System Name	GI50
CC(C)(C)OC(=O)N1CCC23CCCC2C(=O)CC=C13 (stereo unspecified)	MOLT-4	> 100 µM (inactive)
CC1=C(C(=O)OC(C)C)C(c2ccccc2[N+](=O)[O-])C(C(=O)OC(CO[N+](=O)[O-])CO[N+](=O)[O-])=C(C)N1 (stereo unspecified)	MOLT-4	1.46 µM (inactive)
C=CCCC(=O)CC(=O)OCc1ccccc1	MOLT-4	> 100 µM (inactive)

Dear colleague, could you send me GI50 for each of the items below? Thanks.
1. CC(=O)Nc1c(C)cc2c(nc3n2CCC3OC(C)=O)c1[N+](=O)[O-] (stereo unspecified)
2. O=C(O)CNS(=O)(=O)c1ccc(NCc2ccccc2)cc1
3. Cc1ccc(O)c(C2=NNC(c3cccc(Cl)c3)C2)c1 (stereo unspecified)
4. COc1ccc(/C=C2\N=C(N3CCCCC3)NC2=O)cc1
5. CC(=O)NNc1nc(C)c(C(/C=C/c2ccc(NC(C)=O)cc2)=N/NS(=O)(=O)c2ccc(C)cc2)s1
6. CCOC(=O)/C=C/C1OC(C)(C)OC1/C=C/C(=O)OCC (stereo unspecified)
7. C/C=C/OC1C(C2COC(C)(C)O2)OC2OC(C)(C)OC21 (stereo unspecified)

result:
1: > 100 µM (inactive); 2: > 100 µM (inactive); 3: 34 µM (inactive); 4: > 100 µM (inactive); 5: > 100 µM (inactive); 6: 28.4 µM (inactive); 7: > 100 µM (inactive)

query: API: value(readout= GI50, system= MOLT-4, query= CCCC[S+]([O-])CCC(N)C(=O)O (stereo unspecified) )
result: > 100 µM (inactive)

###

Tested on: RXF 393
Measurement Description: NCI tumour cell line growth inhibition, 48 h
Active and inactive are the calls of the source. Cut-off read from the data, not from the text of the source: active = GI50 up to about 1.1 µM and inactive = higher.
For each record, write down the corresponding GI50.

Compound	GI50
O=C(NCCCc1cn[nH]c(=O)n1)c1cccc2nc3ccccc3nc12	41.5 µM (inactive)
CC(=O)/C(=C/N1CCNC1=S)C(=O)Nc1ccccc1C	> 100 µM (inactive)
CCC1CN2CCC3(c4ccccc4)CC(C(=O)OC)=CC1C23 (configuration not stated)	18.3 µM (inactive)
CCOC(=O)c1cn(CC)c2cc3c(cc2c1=O)SCS3	> 100 µM (inactive)
CCCCC#CS(=O)(=O)C(F)(F)F	20.4 µM (inactive)
C/C(=N/NC(=S)N(C)C)c1ccccc1O	23 µM (inactive)
Cc1ccc(S(=O)(=O)C2=c3ncccc3=C3C(=O)c4ccccc4C(=O)C32)cc1 (configuration not stated)	16 µM (inactive)
CCOC(=O)Cn1c(=O)c2nc(SC)sc2n(CC)c1=S	36.8 µM (inactive)

Dear colleague, could you send me GI50 for each of the items below? Thanks.
1. OCCN(CCO)c1ncnc2[nH]cnc12
2. CCCCCCCC/C=C/CCCCCCCC(=O)N(O)C1CC(n2cc(C)c(=O)[nH]c2=O)OC1CO (configuration not stated)
3. O=C(O)CNS(=O)(=O)c1ccc(NCc2ccccc2)cc1
4. CC(C)(CCl)NC(=O)c1cccc(C(=O)NC(C)(C)CCl)n1

result:
1: > 100 µM (inactive); 2: 3.77 µM (inactive); 3: > 100 µM (inactive); 4: > 100 µM (inactive)

###

System: OVCAR-3
Measurement Description: NCI tumour cell line growth inhibition, 48 h
Calls of active or inactive are those of the source. Cut-off read from the data, not from the text of the source: active = GI50 up to about 1.1 µM and inactive = higher.
For each record, write down the corresponding GI50.

Solved cases below.
Compound	Experimental Value
CCCCCCCCCCCCCCCCCCC1=C(O)C(=O)C=C(OC)C1=O	41.8 µM (inactive)
N#CC(Nc1cccc(C(F)(F)F)c1)c1ccccc1C(F)(F)F (stereo unspecified)	6.52 µM (inactive)
CC1(C)N=c2c(ncn2CCO)=C(C(N)=O)N1	> 100 µM (inactive)
C[C@]12CC(c3ccccc3O1)C(C(N)=O)C(=O)N2 (stereo partly specified)	> 100 µM (inactive)
COCCOCOC(CCCCO)c1cc(C)c(O[Si](C)(C)C(C)(C)C)c(C)c1 (stereo unspecified)	5.83 µM (inactive)

Please examine the following record next.
query: Recorded GI50 of "Cc1ccc(/C=C2\Cc3cccc(C)c3C2=O)c(C(=O)O)c1" , please.
result: 94.2 µM (inactive)

###

Test system: ACHN
Measurement Description: NCI tumour cell line growth inhibition, 48 h
Calls of active or inactive are those of the source. Cut-off read from the data, not from the text of the source: active = GI50 up to about 1.1 µM and inactive = higher.
For each record, write down the corresponding GI50.

Solved cases below.
Compound	GI50
CCCCCCCCCCCCCCCCc1c(O)nc(NC#N)nc1C(=O)OC	> 25 µM (inactive)
COC(=O)CCC(NC(=S)N/N=C(\C)c1cnc2ccccc2n1)C(=O)OC (stereo not given)	20.6 µM (inactive)
O=C1NC(c2ccccc2)C1N(Cc1ccccc1)Cc1ccccc1 (stereo not given)	> 100 µM (inactive)
CO[C@@]12C[C@@H](C)C3=CCC(C)=C3CC1=C(C)C(=O)O2	> 100 µM (inactive)
COc1ccc2c(c1)[n+]([O-])c(/C(C)=N/NC(N)=S)c(C)[n+]2[O-]	38.5 µM (inactive)
COC(=O)[C@@H](Nc1ccccc1)[C@@]1(C(=O)OC)SC12c1ccccc1-c1ccccc12	> 100 µM (inactive)

Dear colleague, could you send me GI50 for each of the items below? Thanks.
1. NC(=O)c1cc2ccc(O)cc2o/c1=N/NC(=O)c1ccccc1
2. CC1=NOC(=O)/C1=C/c1ccc2c(c1)OCO2
3. COc1ccc(/C(C=O)=C(\Cl)c2ccc(OC)c(OC)c2)cc1

result:
58.1 µM (inactive)
19.1 µM (inactive)
> 100 µM (inactive)

query: Recorded GI50 of "O=C(Sc1c(-c2ccccc2)c(=O)n(-c2ccccc2)c(=S)n1-c1ccccc1)c1ccco1" , please.
result: > 100 µM (inactive)

###

Test system: UO-31
Measurement Description: NCI tumour cell line growth inhibition, 48 h
Activity calls are given as the source filed them. No stated cut-off is given here; in the data, active = GI50 up to about 1.1 µM and inactive = higher.
For each record, write down the corresponding GI50.

Dear colleague, could you send me GI50 for each of the items below? Thanks.
1. Nc1ccc(-c2nc3ccccc3s2)cc1C(F)(F)F
2. O=C1CCc2ccccc2O1 [DIHYDROCOUMARIN]
3. CN=[S+]([O-])(c1ccccc1)c1ccccc1
4. CCc1nc2ccccc2c(=O)n1/N=C(\N=N\c1ccc(Cl)cc1)c1ccc(N(C)C)cc1
5. O=C(Sc1c(-c2ccccc2)c(=O)n(-c2ccccc2)c(=S)n1-c1ccccc1)c1ccco1
6. Nc1ccc(OCC(O)N2C(=O)c3ccccc3C2=O)cc1 (stereo not given)
7. CC(=O)Nc1c(C)cc2c(nc3n2CCC3OC(C)=O)c1[N+](=O)[O-] (stereo not given)
8. CCN1CCN(c2nc3ccccc3nc2C(=O)c2ccc(OC)c(OC)c2)CC1

result:
["14.7 µM (inactive)", "> 100 µM (inactive)", "> 100 µM (inactive)", "12.2 µM (inactive)", "> 100 µM (inactive)", "> 100 µM (inactive)", "> 100 µM (inactive)", "13.7 µM (inactive)"]

Dear colleague, could you send me GI50 for each of the items below? Thanks.
1. CC1=C[C@]2(O)C(=O)[C@H](C)C[C@H]3[C@@H](CC[C@@](C)(O)/C=C\2C1=O)C3(C)C
2. CC(C)(C)OC(=O)N1CCCC1C(=O)NC(c1ccccc1)c1ccccc1 (stereo not given)

result:
1: 62.5 µM (inactive); 2: > 100 µM (inactive)

###

Test system: SNB-75
Measurement Description: NCI tumour cell line growth inhibition, 48 h
Activity calls are given as the source filed them. Rule as the data show it: active = GI50 up to about 1.1 µM and inactive = higher.
For each record, write down the corresponding GI50.

Solved cases below.
Compound	GI50
O=C(COc1ccccc1Cl)N1N=C(c2ccccc2)CC1(O)c1ccccc1 (stereo not given)	47.6 µM (inactive)
Cc1cc(C)nc(NS(=O)(=O)c2ccc(Nc3c4ccccc4nc4c(C(=O)Nc5ccc(S(=O)(=O)Nc6cc(C)on6)cc5)cccc34)cc2)n1	32.3 µM (inactive)

Dear colleague, could you send me GI50 for each of the items below? Thanks.
1. O=C(N/N=C1\C(=O)N(c2nccs2)C(=O)C(=O)C1c1nc2ccccc2s1)c1ccccc1O (stereo not given)
2. O=C(CN(C(=O)OC12CC3CC(CC(C3)C1)C2)C(=O)OC12CC3CC(CC(C3)C1)C2)Oc1ccc([N+](=O)[O-])cc1

result:
3.3 µM (inactive)
> 100 µM (inactive)

query: Recorded GI50 of "O=C(Sc1c(-c2ccccc2)c(=O)n(-c2ccccc2)c(=S)n1-c1ccccc1)c1ccco1" , please.
result: 72.1 µM (inactive)

###

System: ACHN
Measurement Description: NCI tumour cell line growth inhibition, 48 h
The source made the active and inactive calls. No stated cut-off is given here; in the data, active = GI50 up to about 1.1 µM and inactive = higher.
Observation Type: GI50

Solved cases below.
Molecule	System Name	Experimental Value
CC(=C(C(N)=O)C(N)=O)C1C=C(c2cccs2)CC(c2ccc(Cl)cc2)=C1O (stereo not given)	ACHN	52.5 µM (inactive)
O=c1o[nH]/c(=N/c2ccccc2)n1-c1ccccc1	ACHN	> 100 µM (inactive)
CCOC(=O)/C=C/C1OC(C)(C)OC1/C=C/C(=O)OCC (stereo not given)	ACHN	38.4 µM (inactive)

Dear colleague, could you send me GI50 for each of the items below? Thanks.
1. CN(C)c1ccc(/C=C/C(=O)C(C)(C)C)cc1Br
2. CC1(C)CC(=O)C2=C(C1)c1c(ccc3ccccc13)NC2c1cn(Cc2ccc(Cl)cc2)c2ccccc12 (stereo not given)

result:
31.5 µM (inactive)
61.9 µM (inactive)
